Listed here: items and their measured melting point.

A selection of reference data follows.
[[record]]
molecule = "Cc1cccc(-c2nnc(-c3ccc(-c4cc(=O)c5ccccc5o4)cc3)o2)c1 [Compound 8]"
measurement_type = "melting point"
result = "264 to 265 °C"

[[record]]
molecule = "Cc1ccc(-c2nnc(-c3ccc(-c4cc(=O)c5ccccc5o4)cc3)o2)cc1 [Compound 7]"
measurement_type = "melting point"
result = "270 to 271 °C"

[[record]]
molecule = "O=c1cc(-c2ccc(-c3nnc(-c4ccc(F)cc4)o3)cc2)oc2ccccc12 [Compound 4]"
measurement_type = "melting point"
result = "299 to 300 °C"


Report melting point for O=c1cc(-c2ccc(-c3nnc(Cc4ccccc4Cl)o3)cc2)oc2ccccc12 [Compound 3] please.
276 to 277 °C

Also, O=c1cc(-c2ccc(-c3nnc(-c4ccccc4[N+](=O)[O-])o3)cc2)oc2ccccc12 [Compound 12] please.
287 to 288 °C

Also, O=c1cc(-c2ccc(-c3nnc(-c4cccc(F)c4)o3)cc2)oc2ccccc12 [Compound 5] please.
294 to 295 °C
